Assay: chemical genetic growth profiling, strain panel (AID 1159580);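 also: tested at 20 µM; growth read once vehicle control cultures reached saturation at 30 °C; 1 = growth at the plate median or of vehicle wells; lower values mean less growth of the strain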
Details: S. cerevisiae deletion strains, growth OD, locus YDR001C, strain nth1, active compounds read low
Screen size: about 5,500 compounds; about 2,000 (36%) were called active. About 18% were inconclusive and are not listed. Some of the results follow.
Quantity: normalized growth

O=C(Nc1ccccc1)Nc1ccccc1    0.968 (inactive)
CN(C(=O)CN(CCO)CC(=O)N(C)C(C)(C)Cc1ccccc1)C(C)(C)Cc1ccccc1    1.01 (inactive)
O=[N+]([O-])c1cccc2cn[nH]c12    0.99 (inactive)
CC(CN(C)C)CN1c2ccccc2Sc2ccccc21 (stereo unspecified)    1.01 (inactive)
CC(=O)O[C@H]1C[C@@H](OC(C)=O)C(C)(C)C2CC(=O)[C@]3(C)C(CC[C@@]4(C)[C@H](c5ccoc5)OC(=O)[C@H]5O[C@]543)[C@]21C (stereo partly specified)    0.976 (inactive)
COc1cc(C)c(C(=O)Oc2cc(C)c(C(=O)O)c(O)c2C)c(OC)c1C    0.972 (inactive)

## Input Need normalized growth, item CC(CN1c2ccccc2Sc2ccccc21)N(C)C (stereo unspecified)
## Output 0.983 (inactive)

## Input "Cc1cc(=O)oc2c(O)c(O)ccc12" ?
## Output 0.968 (inactive)

## Input Entry to check: "O=c1[nH]cnc2[nH]ncc12"
## Output 0.992 (inactive)

## Input Note, next up: "O=[N+]([O-])c1cccc2c(Br)[nH]nc12"
## Output 0.984 (inactive)

## Input // next record CC(CN(C)C)CN1c2ccccc2CCc2ccccc21 (stereo unspecified)
## Output 0.977 (inactive)

Where do the numbers come from? From PubChem BioAssay AID1159580.
